Where do these numbers come from? They come from paper PMC10786891.

Kd by entry:
targetOrSystem: T1, EsCas13d, nuclease-dead (Eubacterium siraeum, UniProt B0MS50, R295A;H300A;R849A;H854A)
T1 sequence: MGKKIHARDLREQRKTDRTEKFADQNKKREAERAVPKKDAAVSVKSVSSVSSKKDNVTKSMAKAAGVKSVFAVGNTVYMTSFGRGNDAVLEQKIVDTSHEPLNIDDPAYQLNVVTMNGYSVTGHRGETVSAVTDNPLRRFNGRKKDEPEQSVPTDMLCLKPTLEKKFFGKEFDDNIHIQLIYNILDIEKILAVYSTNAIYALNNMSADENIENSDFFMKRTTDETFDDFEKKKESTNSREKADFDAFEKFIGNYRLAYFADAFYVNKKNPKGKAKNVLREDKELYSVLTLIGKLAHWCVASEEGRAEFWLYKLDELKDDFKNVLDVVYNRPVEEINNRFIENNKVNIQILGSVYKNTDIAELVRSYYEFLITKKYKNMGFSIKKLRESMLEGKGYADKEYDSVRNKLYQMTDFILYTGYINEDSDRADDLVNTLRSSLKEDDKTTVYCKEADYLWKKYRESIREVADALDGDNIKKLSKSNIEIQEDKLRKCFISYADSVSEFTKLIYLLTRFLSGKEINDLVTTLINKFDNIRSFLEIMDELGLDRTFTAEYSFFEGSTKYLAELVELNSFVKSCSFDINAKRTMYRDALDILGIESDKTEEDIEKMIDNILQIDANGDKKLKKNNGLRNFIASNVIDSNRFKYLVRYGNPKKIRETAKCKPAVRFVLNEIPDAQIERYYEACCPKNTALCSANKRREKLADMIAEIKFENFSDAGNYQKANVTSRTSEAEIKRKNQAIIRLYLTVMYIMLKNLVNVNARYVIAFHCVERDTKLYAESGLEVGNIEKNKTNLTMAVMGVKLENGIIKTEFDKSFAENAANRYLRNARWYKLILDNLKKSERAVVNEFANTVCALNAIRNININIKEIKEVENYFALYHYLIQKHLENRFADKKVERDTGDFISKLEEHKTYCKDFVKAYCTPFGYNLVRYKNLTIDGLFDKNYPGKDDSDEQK
assayComment: crRNA (strand 1, pre-loaded); Mg2+; 40 mM Tris-HCl pH 7.5, 150 mM NaCl, 6 mM MgCl2, 1 mM DTT, 0.1% Tween-20, 0.2 mg/ml BSA; 25 C; 10 min per concentration, then washed
measurementConditions: tags: His6-TwinStrep-SUMO cleaved; N-terminal SNAP kept (SNAP-Surface 488); label: 3' end held by stalled T7 RNA polymerase
Provide the reading as a plain figure in nM.

Consider the reported Kd for these binders:
binder	measureUnit	readoutNumber
target 1 insC 3' of 1,insU 3' of 1 (mixed) RNA 1: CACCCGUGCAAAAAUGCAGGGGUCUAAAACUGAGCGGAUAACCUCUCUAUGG RNA 2: GGGAAUGGAUCCACAUCUACGAAUUCGUACCAUAGAGAGGUUAUCCGCUCACUCCGAGAUCGGAAGAGCACACGU	nM	10
target 1 insU 3' of 21,insC 3' of 1 (mixed) RNA 1: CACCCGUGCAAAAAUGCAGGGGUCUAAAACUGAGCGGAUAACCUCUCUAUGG RNA 2: GGGAAUGGAUCCACAUCUACGAAUUCGUACCUAUAGAGAGGUUAUCCGCUCACCCGAGAUCGGAAGAGCACACGU	nM	20.5
target 1 insA 3' of 19,insG 3' of 8 (mixed) RNA 1: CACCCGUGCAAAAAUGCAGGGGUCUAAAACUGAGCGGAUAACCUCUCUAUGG RNA 2: GGGAAUGGAUCCACAUCUACGAAUUCGUACCAUAAGAGAGGUUAUGCCGCUCACCGAGAUCGGAAGAGCACACGU	nM	32.7

Returns the measured Kd for the input binder. Input: target 1 A9U,A16C (mixed) RNA 1: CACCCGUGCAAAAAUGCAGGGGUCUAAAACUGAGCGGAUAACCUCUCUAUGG RNA 2: GGGAAUGGAUCCACAUCUACGAAUUCGUACCAUAGCGAGGUUUUCCGCUCACCGAGAUCGGAAGAGCACACGU
45
